Provenance of the data: ChEMBL document CHEMBL4602708

Catalogue of Papp A→B values
# System: P-gp (MDR1), human
# test_name: Apparent permeability from apical to basolateral side in MDCK-MDR1 cells transfected with human p-gp
# Format: ADME, cell-based, Canis lupus familiaris
# condition_details: dog
measured_metric: Papp A→B (×10⁻⁶ cm/s)

In [3]: df
Out[3]:
                                item_smiles  measured_metric  observed_result
0  COc1nn(-c2cnccn2)cc1C(=O)Nc1cccc(-c2nncn2C(C)C)n1         Papp A→B                5
1  C[C@H]1CCCOc2nn(C)cc2C(=O)Nc2cccc(n2)-c2nncn21         Papp A→B              1.8
